Source of measurements: patent US20250027068A1

Biological target: pooled human IgG (human); note: test concentration or dose not given here
Test: cell-based or functional assay
Metric name: Enzyme Activity Endpoint Assay (purified): IgG (ng/µL)

binder="PRT-200 (enzyme) MEVVEVWPYGQNPNGKTEILSQTEDSESLQRLRDIEDFQAEKKMQNVVYTKWLDGVDVKDHDFRKIVDGNIAYYATPLLNGRGFYDINKDFNRDSDKCAAAVAANMFHYWLDINRDNVDRFLRQNPEKHGIIELPDGQLKLSDFLNTYESDHGYRDKSKLFDFISNNFNGPVWTDKLLDNYINGYAYNYKYGRTIEDPTKNTSKINFFKEVFNEKILTNNHSIRNQNEFSDLLSEALYTGKAIGLSYGPAGLRHSLGHIISVWGADLDADGNVVAIYVTDSDDKKLTIGDERVGLKRYKISTDDENRARLTAYEETDNTGGQIRGLWTLDTGKQAWADYFDKTEQTGTDQAEQLEHHHHHH" measure_unit=ng/µL result_number=2510
